This collection of values is drawn from PubChem BioAssay (NCI).

# Test system: UACC-62 melanoma
# assay-explanation: NCI tumour cell line growth inhibition, 48 h; in the data active = GI50 below about 0.43 µM; inactive = the rest
Write down one outcome, taken from active, inactive

query: Write down the call the test reported for this compound. Item: Cc1cc(-c2nc(-c3ccc(OC(F)(F)F)cc3)no2)nn1Cc1ccnc(N2CCN(C3CC3)CC2)c1
result: inactive

query: Write down the call the test reported for this compound. Item: CCOc1ccc(/C=C/[N+](=O)[O-])cc1
result: inactive

query: Write down the call the test reported for this compound. Item: CN1CCN(Cc2ccc(NC(=O)c3ccc(C#N)c(C#Cc4cnc(N)c5ncccc45)c3)cc2C(F)(F)F)CC1
result: inactive

query: Write down the call the test reported for this compound. Item: c1ccc(-c2nn(-c3ccccc3)[n+](-c3cccc4ccccc34)n2)cc1
result: inactive

query: Write down the call the test reported for this compound. Item: COc1cc2c3c(n(C)c(=O)c2cc1OC)-c1cc2c(cc1/C3=C\CCCBr)OCO2
result: inactive

query: Write down the call the test reported for this compound. Item: COc1ccc(/C=C/c2cc(N3CCOCC3)c3cc(F)c(F)cc3n2)cc1OC
result: inactive

query: Write down the call the test reported for this compound. Item: NCC1OC(OC2C(CO)OC(OC3C(O)C(N)CC(N)C3OC3OC(CO)C(O)C(O)C3N)C2O)C(N)C(O)C1O (stereo unspecified)
result: inactive

query: Write down the call the test reported for this compound. Item: O=C1c2ccccc2-c2c1c1ccccc1c(=O)n2CCCN1CCN(CCCn2c3c(c4ccccc4c2=O)C(=O)c2ccccc2-3)CC1
result: inactive

query: Write down the call the test reported for this compound. Item: N#CN1CCC[C@H]1C(=O)N1CCc2c(-c3[nH]nc4ncccc34)cccc21
result: active

query: Write down the call the test reported for this compound. Item: CC1=C([Se]CC(OC(=O)[C@@H](CO)NC(=O)OC(C)(C)C)C(=O)NC(C)(C)C)C(=O)c2ccccc2C1=O (stereo partly specified)
result: inactive

query: Write down the call the test reported for this compound. Item: COc1cc(C2CC(c3cc(C)ccc3C)=NN2c2ccc(S(=O)(=O)NC(=O)NCc3ccccc3)cc2)cc(OC)c1OC (stereo unspecified)
result: inactive
